From: patent US20250197359A1

Assignment: determine reported Papp A→B for the given compounds.
Assay: Caco-2 permeability (A-B and B-A)
Type: in vitro ADME
Settings: human, Caco-2, replicate 1; read-out: Papp (AB), 10^−6 cm/s, 1
Numbers only, in ×10⁻⁶ cm/s.

compound: CC(C)C(N/C(=N/S(=O)(=O)c1ccc(C(F)(F)F)cc1)N1CCC(c2ccccc2)C(c2ccc(Cl)cc2)=N1)C(N)=O (single isomer, unassigned) [Compound 29b]
Papp A→B, ×10⁻⁶ cm/s: 0.9
--
compound: N/C(=N\C(=N\S(=O)(=O)c1ccc(C(F)(F)F)cc1)N1CCC(c2ccccc2)C(c2ccc(Cl)cc2)=N1)c1ccc(F)cc1F (stereo not shown) [Compound 10p]
Papp A→B, ×10⁻⁶ cm/s: 1.5
--
compound: CC(C)(C)/C(N)=N/C(=N/S(=O)(=O)c1ccc(C(F)(F)F)cc1)N1CCC(c2ccccc2)C(c2ccc(Cl)cc2)=N1 (stereo not shown) [Compound 10o]
Papp A→B, ×10⁻⁶ cm/s: 1.9

Consider the additional compound presented here.
*Q* Fill in the blank: the reported Papp A→B of C/C(N)=N\C(=N\S(=O)(=O)c1ccc(C(F)(F)F)cc1)N1CCC(c2ccccc2)C(c2ccc(Cl)cc2)=N1 (stereo not shown) [Compound 10b] is ____.
*A* 2.4
